# assay_summary: phase I study, pharmacokinetics
# Type: in vivo
# test_parameters: human, plasma; phase 1, patients, oral

compound	half-life
CC1(C)CCC(c2ccc(Cl)cc2)=C(CN2CCN(c3ccc(C(=O)NS(=O)(=O)c4ccc(NC(CCN5CCOCC5)CSc5ccccc5)c(S(=O)(=O)C(F)(F)F)c4)cc3)CC2)C1 (stereo in doubt)	~15 h
